Origin of the recorded values: patent US6613358B2

Test system: CCRF-CEM cells
method_summary: Cytotoxicity, MTS cell proliferation assay
Format: cell-based, human
assay_conditions: Homo sapiens, 2-6 hours exposure, 72 hours incubation, read-out: IC50 (half-maximal growth inhibition)
property_name: IC50 (µM)
Please reply with the bare figure in µM and do not write the unit itself.

CCCCCCCCCCCCCC[N+](C)(C)C [DTAB, tetradecyltrimethylammonium bromide, reference compound] ... 20

For CCCCCCCCCCCCOC(=O)[C@@H](N)CCCNC(=N)N [arginine dodecyl ester] , what is its reported IC50? 150

* * *

method_summary: Apparent partition coefficient water/1-octanol upon SDS addition
assay_conditions: pH 7
property_name: log p

# log p lookup, item NC(=O)CC[C@@H]1NC(=O)[C@H](Cc2ccccc2)NC(=O)[C@H](Cc2ccc(O)cc2)NC(=O)[C@@H](N)CSSC[C@@H](C(=O)N2CCC[C@H]2C(=O)N[C@@H](CCCN=C(N)N)C(=O)NCC(N)=O)NC(=O)[C@H](CC(N)=O)NC1=O [AVP, 8-Arg-vasopressin] > 1
